For each record, write down the corresponding logP.
Experiment: Measurement of log P values by HPLC on reversed phase columns (EEC directive 79/831 Annex V.A8)
Type: physicochemical
Conditions: method marked [a]

{"columns": ["Compound", "logP"],
 "data": [
  ["CCC1(C)CC(C)c2c(NC(=O)c3c(C(F)F)nn(C)c3Br)cccc21 (centres unmarked) [Example 117]", "4.44[a]"],
  ["CC(C)C1Cc2c(NC(=O)c3c(C(F)F)nn(C)c3F)cccc2C1(C)C (centres unmarked) [Example 5]", "4.69[a]"],
  ["CC(C)C1Cc2cccc(NC(=O)c3c(C(F)F)nn(C)c3Cl)c2C1C (centres unmarked) [Example 48]", "4.49[a]"],
  ["CON=C1CC(C)c2c(NC(=O)c3c(C(F)F)nn(C)c3F)cccc21 (centres unmarked) [Example 58]", "2.75[a]"],
  ["CCC1Cc2cccc(NC(=O)c3c(C(F)F)nn(C)c3Cl)c2C1 (centres unmarked) [Example 30]", "4.01[a]"],
  ["CC(C)C1Cc2cccc(NC(=O)c3c(C(F)F)nn(C)c3Cl)c2C1C (centres unmarked) [Example 56]", "4.68[a]"],
  ["CC1CC(C)(C)c2c(I)ccc(NC(=O)c3c(C(F)F)nn(C)c3Cl)c21 (centres unmarked) [Example 20]", "4.91[a];"],
  ["CC1CC(CC(C)(C)C)c2cccc(NC(=S)c3c(C(F)F)nn(C)c3F)c21 (centres unmarked) [Example 87]", "5.08[a]"]
]}

For each entry beneath this line, provide reported logP.
1. Cn1nc(C(F)F)c(C(=S)Nc2cccc3c2CCC3C(C)(C)C)c1Cl (centres unmarked) [Example 74]
2. CC(C)C1Cc2c(NC(=S)c3c(C(F)F)nn(C)c3F)cccc2C1(C)C (centres unmarked) [Example 95]
3. Cn1nc(C(F)F)c(C(=O)Nc2cccc3c2CCC3C(C)(C)C)c1F (centres unmarked) [Example 97]
4. CC1c2c(NC(=O)c3c(C(F)F)nn(C)c3F)cccc2C(C)(C)C1C (centres unmarked) [Example 64]

["4.64[a]", "4.76[a]", "4.39[a]", "3.96[a]"]

For each entry beneath this line, provide reported logP.
1. CC1Cc2cccc(NC(=O)c3c(C(F)F)nn(C)c3F)c2C1 (centres unmarked) [Example 7]
2. CC1Cc2c(NC(=O)c3c(C(F)F)nn(C)c3F)cccc2C1(C)C (centres unmarked) [Example 45]
3. Cc1ccc(NC(=O)c2c(C(F)F)nn(C)c2Cl)c2c1C(C)(C)CC2C (centres unmarked) [Example 18]
4. CCC1(C)CC(C)c2c(NC(=O)c3c(C(F)F)nn(C)c3Cl)cccc21 (centres unmarked) [Example 115]
5. CCC1(C)CCc2c(NC(=O)c3c(C(F)F)nn(C)c3Cl)cccc21 (single isomer, unassigned) [Example 53]

3.31[a]
3.94[a]
4.27[a];
4.46[a]
4.04[a]

---

Test system: Uromyces appendiculatus
Assay: In vivo preventive test on Uromyces appendiculatus (bean rust)
Settings: dose 500 ppm; bean plants sprayed 24 h before contamination; grading 11 days after contamination
For each record, write down the corresponding Eff. %.
Give bare numbers, in %.

Worked cases, answers included:
{"columns": ["Compound", "Eff. %, %"],
 "data": [
  ["CC(C)C1Cc2c(NC(=O)c3c(C(F)F)nn(C)c3Cl)cccc2C1C (stereo not drawn) [Example 21]", 100],
  ["CC1CC2(CC2)c2cccc(NC(=O)c3c(C(F)F)nn(C)c3F)c21 (stereo not drawn) [Example 50]", 100],
  ["CC1c2c(NC(=O)c3c(C(F)F)nn(C)c3Br)cccc2C(C)(C)C1C (stereo not drawn) [Example 65]", 95],
  ["CC1CC(CC(C)(C)C)c2cccc(NC(=O)c3c(C(F)F)nn(C)c3Cl)c21 (stereo not drawn) [Example 69]", 100],
  ["CC1CC(C(C)C)c2cccc(NC(=O)c3c(C(F)F)nn(C)c3Cl)c21 (stereo not drawn) [Example 35]", 100],
  ["CC1Cc2c(NC(=O)c3c(C(F)F)nn(C)c3F)cccc2C1(C)C (stereo not drawn) [Example 45]", 100],
  ["CC1CC2(CC2(Cl)Cl)c2cccc(NC(=O)c3c(C(F)F)nn(C)c3F)c21 (stereo not drawn) [Example 1]", 100],
  ["CON=C1CC(C)c2c(NC(=O)c3c(C(F)F)nn(C)c3F)cccc21 (stereo not drawn) [Example 58]", 95]
]}

Given the compound CCC1Cc2c(NC(=O)c3c(C(F)F)nn(C)c3Cl)cccc2C1(C)C (stereo not drawn) [Example 90] , what is its reported Eff. %?
100
